Where do the numbers come from? From patent US4369120A.

Here, each record is paired with measured Oil Sol. In 3GS data.
- MEASUREMENT_NOTES: Solubility of dyes in refrigeration oils
- CONDITION_DESCRIPTION: Table I, Suniso 3GS refrigeration oil
- Description: Manufacturers of refrigeration equipment generally demand that any refrigeration liquid satisfactorily pass such a sealed tube test before they approve the liquid for use in their equipment. In addition, the solubility of the various dyes in oil and in refrigerant were determined. Solubility of various dyes in various refrigeration oils was carefully determined according to the following standardized procedure. […] Wt/wt percentage concentrations were then calculated from proper standard curves.
Write the answer as a number in %, unit excluded.

> print(dat)
                                   molecule  uom  observed
1  O=C1c2ccccc2C(=O)c2c(Nc3ccccc3C(F)(F)F)ccc(Nc3ccccc3C(F)(F)F)c21    %       0.5
2  CCN(c1ccccc1)c1ccc(N(CC)c2ccccc2)c2c1C(=O)c1ccccc1C2=O    %       1.0
3  CCCCCCCCCCCCNc1ccc(NCCCCCCCCCCCC)c2c1C(=O)c1ccccc1C2=O    %       0.5

Reported Oil Sol. In 3GS of `CCCCc1ccc(N(C)c2ccc(N(C)c3ccc(CCCC)cc3)c3c2C(=O)c2ccccc2C3=O)cc1` : 0.1

Reported Oil Sol. In 3GS of CC(Nc1ccc(NC(C)c2ccccc2)c2c1C(=O)c1ccccc1C2=O)c1ccccc1 (stereo not drawn) : 1.0

Reported Oil Sol. In 3GS of `Cc1cccc(C)c1Nc1ccc(Nc2c(C)cccc2C)c2c1C(=O)c1ccccc1C2=O` : 0.1

###

Here, each record is paired with measured Stability, Mean Life data.
- MEASUREMENT_NOTES: Sealed tube test of stability of dyes in refrigerant/refrigeration oil with metal coupons
- Assay type: physicochemical
- CONDITION_DESCRIPTION: Table I, sealed tube data in R-12 at 350° F.
Write the answer as a number in days, unit excluded.

Reported Stability, Mean Life of CCCCOc1ccc(N(C)c2ccc(N(C)c3ccc(OCCCC)cc3)c3c2C(=O)c2ccccc2C3=O)cc1 [Dye No. 20-12, 1,4-Bis(N--methyl-4-n-butoxyanilino)] : 4.0

Reported Stability, Mean Life of O=C1c2ccccc2C(=O)c2c(NCCc3ccccc3)ccc(NCCc3ccccc3)c21 [Dye No. 9-8, 1,4-Bis(β-phenethylamino)] : 4.4

Reported Stability, Mean Life of O=C1c2ccccc2C(=O)c2c(Nc3ccccc3C(F)(F)F)ccc(Nc3ccccc3C(F)(F)F)c21 [Dye No. 23-24, 1,4-Bis(2-trifluoro-methylanilino)] : 6.5

###

- MEASUREMENT_NOTES: Solubility of dyes in refrigeration oils
- CONDITION_DESCRIPTION: Table I, Suniso 3GS refrigeration oil
Here, each record is paired with measured Oil Sol. In 3GS data.

Reported Oil Sol. In 3GS of CCCCc1ccc(Nc2ccc(Nc3ccc(CCCC)cc3)c3c2C(=O)c2ccccc2C3=O)cc1 [Dye No. 4-1, 1,4-Bis(4-n-butylanilino)] : < 1.0%

Reported Oil Sol. In 3GS of O=C1c2ccccc2C(=O)c2c(NC(c3ccccc3)c3ccccc3)ccc(NC(c3ccccc3)c3ccccc3)c21 [Dye No. 12-20, 1,4-Bis(diphenylmethylamino)] : < 0.05%

Reported Oil Sol. In 3GS of CCOc1ccc(Nc2ccc(Nc3ccc(OCC)cc3)c3c2C(=O)c2ccccc2C3=O)cc1 [Dye No. 7-3, 1,4-Bis(4-ethoxyanilino)] : < 1.0%

Reported Oil Sol. In 3GS of O=C1c2ccccc2C(=O)c2c(NCCc3ccccc3)ccc(NCCc3ccccc3)c21 [Dye No. 9-8, 1,4-Bis(β-phenethylamino)] : 0.1%

Reported Oil Sol. In 3GS of CC(C)(C)CNc1ccc(NCC(C)(C)C)c2c1C(=O)c1ccccc1C2=O [Dye No. 15-13, 1,4-Bis(neopentylamino)] : < 1.0%

Reported Oil Sol. In 3GS of CCCCOc1ccc(Nc2ccc(Nc3ccc(OCCCC)cc3)c3c2C(=O)c2ccccc2C3=O)cc1 [Dye No. 8-2, 1,4-Bis(4-n-butoxyanilino)] : 0.02%
